Test system: ANGPTL3 gene
METHOD NOTES: Example 7: serum total cholesterol in mice
Assay type: in vivo, C57bl/6 mice
Set-up: key: ratio: (level/pre-treatment day -1 level) ÷ mean of D5W control group
EXPERIMENTAL CONDITIONS: Day 22, 0.5 mg/kg single SC injection on day 1, n=3
In the oligonucleotide strings, read from the 5' end, every base follows the letter of its sugar. An asterisk marks phosphorothioate; unmarked linkages are phosphodiester. Other units and linkages are bracketed, terminal groups are in braces. A string of capitals states the bases alone. {NAG37} = tridentate N-acetyl-galactosamine targeting ligand, structure (NAG37)s; [invAb] = inverted abasic unit; m = 2'-O-methyl; f = 2'-fluoro
Would you mind telling me the reported Avg Total Chol, normalized to pre-treatment and control of each entry?
Answers are plain numbers.

SUBSTANCE: AD05777: RNAi agent duplex: antisense AM07235-AS, sense AM07610-SS (antisense UACUGAUCAAAUAUGUUGAGC; sense GCUCAACNUNUUUGAUCAGUA; (NAG37)s GalNAc ligand; RNAi agent antisense strand modified sequence; RNAi agent sense strand modified sequence; modified_base 8, 10 n = 2′-O-methyl-2-aminoadenosine-3′-phosphate)
NUMERIC VALUE: 0.794

SUBSTANCE: AD05775: RNAi agent duplex: antisense AM07235-AS, sense AM07608-SS (antisense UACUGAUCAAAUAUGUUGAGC; sense GCUCAACAUNUUUGAUCAGUA; (NAG37)s GalNAc ligand; RNAi agent antisense strand modified sequence; RNAi agent sense strand modified sequence; modified_base 10 n = 2′-O-methyl-2-aminoadenosine-3′-phosphate)
NUMERIC VALUE: 0.812

SUBSTANCE: AD05488: RNAi agent duplex: antisense AM07235-AS, sense AM07234-SS (antisense mU*fA*mC*fUmGfAmUfCmAfAmAfUmAfUmGfUmUfGmAfG*mC; sense {NAG37}*[invAb]*mGmCmUmCmAmAmCmAfUfAfUmUmUmGmAmUmCmAmGmUmA*[invAb])
NUMERIC VALUE: 0.810

Each substance below has a reported value. Please supply its Avg Total Chol, normalized to pre-treatment and control.
1. AD05418: RNAi agent duplex: antisense AM07159-AS, sense AM07158-SS (antisense mU*fU*mU*fGmAfAmUfUmAfAmUfGmUfCmCfAmUfGmGfG*mU; sense {NAG37}*[invAb]*mAmCmCmCmAmUmGmGfAfCfAmUmUmAmAmUmUmCmAmAmA*[invAb])
2. AD05308: RNAi agent duplex: antisense AM07003-AS, sense AM07002-SS (chain 1 mU*fG*mU*fUmGfAmAfUmUfAmAfUmGfUmCfCmAfUmGfG*mA; chain 2 {NAG37}*[invAb]*mUmCmCmAmUmGmGmAfCfAfUmUmAmAmUmUmCmAmAmCmA*[invAb])

Response given:
[0.926, 0.896]

###

Tested on: ANGPTL3 gene
METHOD NOTES: Example 7: serum LDL in mice
Type: in vivo
Parameters: key: ratio: (level/pre-treatment day -1 level) ÷ mean of D5W control group
EXPERIMENTAL CONDITIONS: Day 22; 0.5 mg/kg single SC injection day 1; female C57bl/6 mice, n=3; ratio to D5W control
In the oligonucleotide strings, read from the 5' end, every base follows the letter of its sugar. An asterisk marks phosphorothioate; unmarked linkages are phosphodiester. Other units and linkages are bracketed, terminal groups are in braces. A string of capitals states the bases alone. {NAG37} = tridentate N-acetyl-galactosamine targeting ligand, structure (NAG37)s; [invAb] = inverted abasic unit; m = 2'-O-methyl; f = 2'-fluoro
READOUT NAME: Avg LDL, normalized to pre-treatment and control

Here's what some known entries look like.
SUBSTANCE: AD05308: RNAi agent duplex: antisense AM07003-AS, sense AM07002-SS (chain 1 mU*fG*mU*fUmGfAmAfUmUfAmAfUmGfUmCfCmAfUmGfG*mA; chain 2 {NAG37}*[invAb]*mUmCmCmAmUmGmGmAfCfAfUmUmAmAmUmUmCmAmAmCmA*[invAb])
RESULT: 0.933
//
SUBSTANCE: AD05488: RNAi agent duplex: antisense AM07235-AS, sense AM07234-SS (antisense mU*fA*mC*fUmGfAmUfCmAfAmAfUmAfUmGfUmUfGmAfG*mC; sense {NAG37}*[invAb]*mGmCmUmCmAmAmCmAfUfAfUmUmUmGmAmUmCmAmGmUmA*[invAb])
RESULT: 0.860

Record Avg LDL, normalized to pre-treatment and control for all entries; do not skip any.
1. AD05418: RNAi agent duplex: antisense AM07159-AS, sense AM07158-SS (antisense mU*fU*mU*fGmAfAmUfUmAfAmUfGmUfCmCfAmUfGmGfG*mU; sense {NAG37}*[invAb]*mAmCmCmCmAmUmGmGfAfCfAmUmUmAmAmUmUmCmAmAmA*[invAb])
2. AD05777: RNAi agent duplex: antisense AM07235-AS, sense AM07610-SS (antisense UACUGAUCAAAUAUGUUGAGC; sense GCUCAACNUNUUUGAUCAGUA; (NAG37)s GalNAc ligand; RNAi agent antisense strand modified sequence; RNAi agent sense strand modified sequence; modified_base 8, 10 n = 2′-O-methyl-2-aminoadenosine-3′-phosphate)
3. AD05775: RNAi agent duplex: antisense AM07235-AS, sense AM07608-SS (antisense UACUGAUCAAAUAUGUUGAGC; sense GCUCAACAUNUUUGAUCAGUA; (NAG37)s GalNAc ligand; RNAi agent antisense strand modified sequence; RNAi agent sense strand modified sequence; modified_base 10 n = 2′-O-methyl-2-aminoadenosine-3′-phosphate)

Response given:
1. 0.950
2. 0.966
3. 1.095

Data origin: patent US12729377B2
